Where these numbers come from: the supplement of paper PMC11061612

Test system: NCI-H2347 (Lung Adenocarcinoma)
Assay: combination Emax (second highest fraction inhibited in the dose matrix, 72 h); higher = more inhibition; extreme values may be limits of the assay
metric.name: combination Emax
Respond with the number and no other words.

// solved cases for combination Emax follow
# compound, combination Emax
measured = [
    ("CC1(C)CCC(CN2CCN(c3ccc(C(=O)NS(=O)(=O)c4ccc(NCC5CCOCC5)c([N+](=O)[O-])c4)c(Oc4cnc5[nH]ccc5c4)c3)CC2)=C(c2ccc(Cl)cc2)C1 [Venetoclax] + Cc1cc2ncnn2cc1Nc1ncc2c(n1)n(C1CCOCC1)c(=O)n2C [AZD7648] (first compound max 1 µM, 7x7, partner max 10 µM)", 0.194),
    ("COc1cccc(OCCCN)c1-c1cc(Nc2cnc(C#N)cn2)n[nH]1 [Prexasertib] + C=CCn1c(=O)c2cnc(Nc3ccc(N4CCN(C)CC4)cc3)nc2n1-c1cccc(C(C)(C)O)n1 [AZD1775] (first compound max 1 µM, partner max 1 µM)", 0.481),
    ("COc1cc2ncnc(Nc3ccc(F)c(Cl)c3)c2cc1OCCCN1CCOCC1 [Gefitinib] + CC(C)n1c(=O)n(C)c2cnc3cc(F)c(-c4ccc(OCCCN5CCCCC5)nc4)cc3c21 [AZD1390] (first compound max 10 µM, 7x7, partner max 0.3 µM)", 0.0611),
]

Now look at this one.
// query combination Emax value for entry Cn1cnc2c(F)c(Nc3ccc(Br)cc3Cl)c(C(=O)NOCCO)cc21 [Selumetinib] + CC(C)n1c(=O)n(C)c2cnc3cc(F)c(-c4ccc(OCCCN5CCCCC5)nc4)cc3c21 [AZD1390] (first compound max 10 µM, 7x7, partner max 0.3 µM)
0.308

###

Tested on: HSC-2 (Oral Cavity Carcinoma)
Assay: Bliss excess, mean over the matrix (fraction); higher = more synergy
Recorded measurements of Bliss excess, one per entry
Respond with the number and no other words.

// solved cases for Bliss excess follow
# molecule, experimental.target, measured
records = [
    ("N#Cc1cnc(Nc2cc(NC[C@H]3CNCCO3)c(C(F)(F)F)cn2)cn1 [SRA737] + Nc1ccn([C@@H]2O[C@H](CO)[C@@H](O)C2(F)F)c(=O)n1 [Gemcitabine] (first compound max 10 µM, 7x7, partner max 0.3 µM)", "HSC-2 (Oral Cavity Carcinoma)", 0.059),
    ("CC1(C)CCC(CN2CCN(c3ccc(C(=O)NS(=O)(=O)c4ccc(NCC5CCOCC5)c([N+](=O)[O-])c4)c(Oc4cnc5[nH]ccc5c4)c3)CC2)=C(c2ccc(Cl)cc2)C1 [Venetoclax] + CN(C)CCCOc1ccc(-c2ccc3ncc4c(c3c2)n(C2CCOCC2)c(=O)n4C)cn1 [AZD0156] (first compound max 1 µM, 7x7, partner max 1 µM)", "HSC-2 (Oral Cavity Carcinoma)", 0.0307),
]

Now look at this one.
// query Bliss excess value for entry CC(=O)c1c(C)c2cnc(Nc3ccc(N4CCNCC4)cn3)nc2n(C2CCCC2)c1=O [Palbociclib] + CC1(C)CCC(CN2CCN(c3ccc(C(=O)NS(=O)(=O)c4ccc(NCC5CCOCC5)c([N+](=O)[O-])c4)c(Oc4cnc5[nH]ccc5c4)c3)CC2)=C(c2ccc(Cl)cc2)C1 [Venetoclax] (first compound max 10 µM, 7x7, partner max 1 µM)
-0.0128

###

System: LOU-NH91 (Squamous Cell Lung Carcinoma)
Assay: Bliss excess, mean over the matrix (fraction); higher = more synergy
Recorded measurements of Bliss excess, one per entry
Respond with the number and no other words.

# compound, Bliss excess
rows = [
    ("Cc1c2c(nn1C)CSCc1cc(n(C)n1)CSc1cc(c3ccccc3c1)OCCCc1c(C(=O)O)n(C)c3c-2c(Cl)ccc13 [AZD5991] + C=CCn1c(=O)c2cnc(Nc3ccc(N4CCN(C)CC4)cc3)nc2n1-c1cccc(C(C)(C)O)n1 [AZD1775] (first compound max 1 µM, partner max 1 µM)", 0.0376),
]

// query Bliss excess value for entry COc1cccc(OCCCN)c1-c1cc(Nc2cnc(C#N)cn2)n[nH]1 [Prexasertib] + Cc1cc2ncnn2cc1Nc1ncc2c(n1)n(C1CCOCC1)c(=O)n2C [AZD7648] (first compound max 1 µM, 7x7, partner max 10 µM)
0.007
